# Test system: Bacillus subtilis
# ASSAY NOTES: Antibacterial activity against Bacillus subtilis MTCC 441 after 24 hrs by broth microdilution method
# Type: functional
# EXPERIMENTAL SETUP: MTCC 441, 24 h
Values of MIC strictly less than 200 µg/mL map to fulfilled, and values of at least 200 µg/mL map to not fulfilled.

query: Confirm or reject: MIC of Cc1nn(-c2cc(Cl)ccc2Cl)c2c1[C@@H]1c3c(ccc4c(C)cc(=O)oc34)OC[C@@H]1C(C)(C)O2 lies strictly below 200 µg/mL
result: fulfilled

query: # TODO verify MIC < 200 µg/mL strictly for this compound: Cc1nn(-c2ccccc2)c2c1[C@@H]1c3cc4cccc(C)c4nc3SC[C@@H]1CO2
result: fulfilled

query: Strictly below 200 µg/mL in MIC? Cc1nn(-c2ccccc2Cl)c2c1[C@@H]1c3cc4cccc(C)c4nc3SC[C@@H]1CO2
result: fulfilled

query: Decide: MIC of CC1(C)S[C@@H]2[C@H](NC(=O)[C@H](N)c3ccccc3)C(=O)N2[C@H]1C(=O)O strictly below 200 µg/mL?
result: not fulfilled

query: Does the reported MIC of the following compound sit strictly below 200 µg/mL? Cc1nn(-c2ccc(Cl)c(Cl)c2)c2c1[C@@H]1c3c(ccc4c(C)cc(=O)oc34)OC[C@@H]1C(C)(C)O2
result: not fulfilled

query: Is the reported MIC for Cc1nn(-c2cc(Cl)ccc2Cl)c2c1[C@@H]1c3cc4ccccc4nc3SC[C@@H]1CO2 strictly below 200 µg/mL?
result: fulfilled

Next:
query: MIC under 200 µg/mL? Item: Cc1nn(-c2ccccc2)c2c1[C@@H]1c3cc4cccc(C)c4nc3SC[C@@H]1C(C)(C)O2 (single isomer, unassigned)
result: not fulfilled

query: Is 200 µg/mL strictly greater than the compound's reported MIC? compound: Cc1nn(-c2ccccc2Cl)c2c1[C@@H]1c3cc4ccccc4nc3SC[C@@H]1CO2
result: fulfilled

query: Input Cc1nn(-c2ccccc2Cl)c2c1[C@@H]1c3c(ccc4c(C)cc(=O)oc34)OC[C@@H]1C(C)(C)O2 ; condition: MIC strictly below 200 µg/mL. Does it hold?
result: fulfilled
